assay: small-molecule microarray binders of probe aXIP, primary screen, biochemical, NeuroSMM set, 635/667 nm fluorescence (AID 1119); conditions: higher = more signal, called active from +8 up or from −8 down;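 further: probe is the protein aXip251-270 applied at 1 µg/mL to compound-printed slides; binding of probe to printed compounds measured as 667 nm fluorescence plus signal to noise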
reported.endpoint: composite Z-score
Enter a number only.

Some entries whose results are on file:
O=C(N1CCCCC1)[C@@]1(Cc2ccccc2)COC(c2ccc(OCCCO)cc2)=N1	0.986
CCOC(=O)C1=CC[C@@H](c2cc(Cl)ccc2Cl)N(S(=O)(=O)c2ccc(C)cc2)[C@H]1c1ccc(OC)cc1	0.552
O=C1OC[C@@H](c2ccccc2)N2CC(/C=C/c3ccccc3)=CC12 (stereo partly specified)	0.142
CCOC(=O)C[C@H]1[C@H](OC(=O)Cc2ccc3c(c2)OCO3)[C@@H](NC(=O)Cc2ccc(OC)cc2)c2cc(OCCCO)ccc2N1C(=O)c1ccccc1	-0.0539
NC(=O)NCC#Cc1ccc2c(c1)[C@]1(C(=O)N2)[C@H](C(=O)Nc2nc3ccccc3s2)[C@H]2C(=O)O[C@H](c3ccccc3)[C@H](c3ccccc3)N2[C@@H]1c1ccc(O)cc1	0.157

// lookup composite Z-score for COc1ccc([Si](C)(C)[C@H]2[C@H](CCn3cc([C@H](O)c4ccccc4)nn3)O[C@@]3(C(=O)N(Cc4ccc(N5CCC5=O)cc4)c4ccccc43)[C@@H]2C)cc1
-0.128

---

biological target: Pro-neuregulin-1, membrane-bound isoform (Homo sapiens); assay: NRG1 binders on small-molecule microarrays, primary screen, psychiatric disease protein project, biochemical, small-molecule microarray, fluorescence 635/667 (AID 1075); conditions: NRG1 binding, 635 nm fluorescence, higher = more signal;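 further: score combines 667 nm spot fluorescence with signal to noise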
Label NOT MET if composite z-score falls below 1; label MET in every other case.

Here are 5 molecules together with their reported answers.
COC(=O)[C@@]1(Cc2ccccc2)[C@H]2c3cc(C(=O)N4CCCC4)n(Cc4ccsc4Br)c3C[C@H]2CN1C(=O)c1ccccc1	MET
CCOC(=O)[C@H]1C/C=C/C[C@H](C(=O)OCC)C(=O)O[C@H]2[C@@H](OC)O[C@H](CO)[C@@H](OC(=O)CCc3ccccc3)[C@@H]2OC1=O	NOT MET
Cc1ccc(S[C@]2(C(=O)NC(C)C)CC(=O)N(C3Cc4ccccc4C3)[C@@H]2c2ccc(CO)cc2I)cc1	MET
C=C[C@@H](C)[C@H](OC(=O)Nc1ccc(SC)cc1)c1ccc(OCCO)cc1	MET
C=CC1c2cc(O)c(OC)cc2CCN1Cc1sc2ccccc2c1Cl (stereo unspecified)	MET

Then there is this molecule:
Textbook exercise: given the entry COCC(=C=CC[C@H](O)c1cccc(OCCO)c1)C[C@H](O)c1ccccn1 , state whether its composite z-score is greater than or equal to 1.
MET

---

Recorded composite z-score values for a group of molecules are listed next.
molecular target: Fibroblast growth factor 2 (Homo sapiens) (UniProt P09038); experiment: FGF2 binders on small-molecule microarrays, primary screen, biochemical, small-molecule microarray, 635/667 nm fluorescence (AID 1133); settings: small-molecule microarray binding, FGF2, fluorescence 635/667; higher = more signal
Sequence (P09038 whole entry, looked up): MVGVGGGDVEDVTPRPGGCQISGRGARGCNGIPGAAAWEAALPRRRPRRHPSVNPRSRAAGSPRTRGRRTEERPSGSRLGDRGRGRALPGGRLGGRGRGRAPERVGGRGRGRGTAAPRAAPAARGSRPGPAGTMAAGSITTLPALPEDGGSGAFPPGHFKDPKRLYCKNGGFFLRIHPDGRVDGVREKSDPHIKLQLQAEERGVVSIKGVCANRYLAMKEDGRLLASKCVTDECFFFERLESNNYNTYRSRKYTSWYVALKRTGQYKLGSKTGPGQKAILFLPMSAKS
I'd appreciate a reply containing only the number, no unit.

[N-]=[N+]=NCc1ccccc1C[C@@]1(C(N)=O)N=C(c2ccc(OCCCO)cc2)O[C@@H]1c1ccccc1CN=[N+]=[N-]	0.653
[N-]=[N+]=NCc1ccccc1C[C@]1(C(=O)NCC(O)CO)N=C(c2ccc(OCCCO)cc2)O[C@H]1c1ccccc1CN=[N+]=[N-] (stereo partly drawn)	0.495

Param item = COCCCNC(=O)[C@@]1(Sc2ccc(C)cc2)CC(=O)N(C2Cc3ccccc3C2)[C@@H]1c1ccc(CO)cc1I ; retrieve measured composite z-score.
-1.19

---

biological target: Torsin-1A (Homo sapiens); assay: small-molecule binders of mutant TOR1A in lysate, primary screen, cell lysate, small-molecule microarray, COS7 lysate, 635/667 nm fluorescence (AID 1150); conditions: COS7 hTOR1A mutant lysate, 635 nm fluorescence, higher = more signal;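 further: score pools 667 nm emission and signal to noise measuring lysate protein binding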
reported.endpoint: composite z-score

Please review the following examples before continuing.
COCCOC(=O)N1C(=O)[C@@]2(c3cc(C#Cc4ccc(OC)cc4)ccc31)[C@H](C(=O)N1CCCCCCC1)[C@H]1C(=O)O[C@H](c3ccccc3)[C@H](c3ccccc3)N1[C@@H]2c1ccc(O)cc1	0.864
C#CCNC(=O)[C@H](Cc1ccccc1)NC(=O)[C@@H](N=[N+]=[N-])C(C)C	0.892
CC(=O)n1cc(C(O)C2C=CC3C(=O)N(Cc4ccccc4)C(=O)C3N2n2cnnc2)c2ccccc21 (configuration not stated)	-0.0022
CC(C)OC(=O)CC(=O)CC(O)c1cccc(C#N)c1 (configuration not stated)	1.97
C=C(C(=O)CC[C@H](OC(=O)c1cccnc1)c1ccc(CO)o1)C(C)C	0.449

# composite z-score lookup, item COCCCNC(=O)[C@@H]1c2ccccc2C(=O)N(Cc2ccccc2C(F)(F)F)[C@H]1c1ccc(CO)cc1
0.331

Form field: reported composite z-score of C=CCN1C(=O)[C@@]2(O[C@@H](CCn3cc([C@H](O)c4ccccc4)nn3)[C@H]([Si](C)(C)c3ccc(OC)cc3)[C@H]2C)c2ccccc21
-0.168

// composite z-score lookup, key: CC=CC(O)C1C=CC2C(=O)N(C)C(=O)C2N1Nc1ccc([N+](=O)[O-])cc1[N+](=O)[O-] (configuration not stated)
-0.297

What composite z-score value was documented for this molecule, [N-]=[N+]=NCc1ccccc1C[C@@]1(C(=O)N2CCCCC2)N=C(c2ccc(OCCCO)cc2)O[C@@H]1c1ccccc1N=[N+]=[N-] ?
0.826

Which composite z-score value is on record for C=CCN1C(=O)[C@]2(CC=C)N=C(c3ccc(OCCCO)cc3)O[C@@H]2c2ccccc21 ?
0.538

What value of composite z-score has been reported for the following molecule? CC1CC/C=C\[C@H]2OC34C=CCN(CCN5CCOCC5)C(=O)[C@H]3N(CCO)C(=O)[C@@H]4C2C(=O)O1 (some centres not stated)
0.213

Quick one: composite z-score of COc1ccc(NN2C(C(O)c3ccco3)C=CC3C(=O)N(C4CCCCC4)C(=O)C32)cc1 (configuration not stated) ?
1.1

---

This section presents molecules with their documented z-score values.
test: inhibitors of hydroxyurea-induced Chk1 phosphorylation, primary screen, imaging, HeLa, phospho-Chk1 nuclear intensity (AID 1187); settings: hydroxyurea-induced phospho-Chk1 immunofluorescence imaging, higher = more signal; further: test concentration not given here
No unit in the answer, only the number.

Sample answers from the record:
NC(=O)NCC#Cc1ccc2c(c1)[C@]1(C(=O)N2)[C@H](c2ccc(O)cc2)N2[C@H](c3ccccc3)[C@H](c3ccccc3)OC(=O)[C@H]2[C@@H]1C(=O)Nc1nc2ccccc2s1	0.0338
COc1cc2c(cc1OC)CN(C(=O)[C@@H]1[C@H]3C(=O)O[C@H](c4ccccc4)[C@H](c4ccccc4)N3[C@H](c3ccccc3OCCO)[C@@]13C(=O)Nc1ccc(C#CC4(O)CCCCCC4)cc13)CC2	-0.522
COCCCNC(=O)[C@@H]1c2ccccc2C(=O)N(Cc2ccccc2C(F)(F)F)[C@H]1c1ccc(CO)cc1	-0.593
C=CCC(OC(C)=O)[C@@H]1[C@@H](N(Cc2cc3ccccc3o2)C(=O)Cc2ccc(F)cc2)c2cc(OCCCO)ccc2N1C(=O)c1ccc2ccccc2n1 (stereo not given in full)	0.636

Need z-score of C=CCOC(=O)[C@@H]1[C@H]2C(=O)O[C@H](c3ccccc3)[C@H](c3ccccc3)N2[C@H](c2ccc(OCCOC(=O)[C@H]3C[C@H]4C(=O)N[C@@H](CC(C)C)C(=O)N4[C@H]3c3ccc(O)cc3)cc2)[C@@]12C(=O)Nc1ccc(I)cc12 , thanks.
-0.115

---

target: Dickkopf-related protein 1 (Homo sapiens); assay: DKK1 binders on small-molecule microarrays, primary screen, biochemical, small-molecule microarray, 635 nm fluorescence scan (AID 1106); settings: DKK1 binding, higher = more signal;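 further: score merges emission near 667 nm with signal to noise over three replicate slides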
reported.endpoint: composite z-score
I'd appreciate a reply containing only the number, no unit.

// worked examples, composite z-score included
COC(=O)C(CC#Cc1ccc2c(c1)[C@]1(C(=O)N2)[C@H](C(=O)O)[C@H]2C(=O)O[C@H](c3ccccc3)[C@H](c3ccccc3)N2[C@@H]1c1ccccc1OCCO)C(=O)OC	0.337
C=CCC(OC(C)=O)[C@@H]1[C@@H](N(Cc2cc3ccccc3o2)C(=O)Cc2ccc(F)cc2)c2cc(OCCCO)ccc2N1C(=O)c1ccc2ccccc2n1 (stereo partly specified)	0.0645
CN(C)CCCCNC(=O)[C@H]1C[C@H]2C(=O)N[C@@H](CCCCN(C)C)C(=O)N2[C@H]1c1cccc(OCCO)c1	0.418
Cc1ccc(S[C@]2(C(=O)NC3CC3)CC(=O)N(Cc3ccccc3Cl)[C@@H]2c2ccc(CO)cc2I)cc1	0.122
C=CCNC(=O)[C@@H]1[C@H]2C(=O)O[C@H](c3ccccc3)[C@H](c3ccccc3)N2[C@H](c2ccccc2OCCO)[C@@]12C(=O)N(C(=O)OCCOC)c1ccc(C#CC3=CCCCC3)cc12	0.373

Query (compound): [N-]=[N+]=Nc1ccccc1[C@H]1OC(c2ccc(OCCCO)cc2)=N[C@@]1(CCS(=O)(=O)c1ccccc1)C(=O)N1CCCCC1 ; field requested: composite z-score
-0.44
